Ref: patent US20250179059A1

- Test system: human SKM-1 acute myeloid leukemia cells
- procedure_text: SKM-1 antiproliferation cell-based assay (ATPlite)
- condition_info: Homo sapiens, SKM-1, 96 h, SKM-1 antiproliferation assay, 4 days, Table C2
Below: a set of entries, each annotated with reported GI50.
parameter_measured: GI50

>>> result("Cn1ccn(-c2ccc(-c3cc(F)cc(-c4ccnc(N5CCN(Cc6ccccc6)CC5)c4)c3O)cc2Cl)c1=O [Example 629]")
"30 to 300 nM"
>>> result("C[C@@H]1CN(c2cc(-c3cc(F)cc(-c4ccc(-n5ccn(C)c5=O)c(Cl)c4)c3O)cc(OCCCO)n2)CCN1 [Example 638]")
"0.3 to 30 nM"
>>> result("Cn1ccn(-c2ccc(-c3cc(F)cc(-c4cncc(N5CCNC(C)(C)C5)c4)c3O)cc2Cl)c1=O [Example 561]")
"0.3 to 30 nM"
>>> result("CC(=O)Nc1ccc(-c2cccc(-c3cncc(N4CCN[C@H](C)C4)c3)c2O)cc1F [Example 258]")
"30 to 300 nM"

----------
- System: human SKM-1 acute myeloid leukemia cells
- procedure_text: SKM-1 antiproliferation cell-based assay (ATPlite)
- condition_info: Homo sapiens, SKM-1, 96 h, SKM-1 antiproliferation assay, 4 days, Table C2
parameter_measured: GI50

>>> result("CN1C2CCC1CN(c1cncc(-c3cc(F)cc(-c4ccc(-n5ccn(C)c5=O)c(Cl)c4)c3O)c1)C2")
"0.3 to 30 nM"
>>> result("Cn1ccn(-c2ccc(-c3cc(F)cc(-c4cnnc(N5CC[C@@](C)(O)C5)c4)c3O)cc2Cl)c1=O")
"0.3 to 30 nM"
>>> result("CN1CCN(c2ccc(-c3cccc(-c4ccnc(N5CCCC(N)C5)c4)c3O)cc2Cl)C1=O (stereo not shown)")
"30 to 300 nM"
>>> result("COc1ncc(-c2cc(F)cc(-c3ccc(-n4ccn(C)c4=O)c(Cl)c3)c2O)cc1N1CC[C@@](C)(O)C1")
"0.3 to 30 nM"
>>> result("Cc1cc(-c2ccc(-n3ccn(C)c3=O)c(Cl)c2)c(O)c(-c2cc(N3CCNCC3)c3cc[nH]c3c2)c1")
"0.3 to 30 nM"
>>> result("CN1CCN(c2ccc(-c3cccc(-c4ccnc(N5CCC(N)CC5)c4)c3O)cc2Cl)C1=O")
"30 to 300 nM"
>>> result("COCC(C)(C)N1CCN(c2cc(-c3cc(F)cc(-c4ccc(-n5ccn(C)c5=O)c(Cl)c4)c3O)ccn2)CC1")
"0.3 to 30 nM"

----------
- system: human BRD4 bromodomain II (Homo sapiens, UniProt O60885)
- Construct: human BRD4 bromodomain II [based on Genbank NM_058243, residues 349-460]; host or cells: E. coli
- procedure_text: Bromodomain binding assay (AlphaScreen), BRD4 BDII
- condition_info: AlphaScreen assay, Table C2; read-out: BRD4 BDII IC50
parameter_measured: IC50

>>> result("CC(=O)Nc1ccc(-c2cccc(-c3cccc(Cl)c3)c2O)cc1F")
"> 100 nM"
>>> result("CC(=O)Nc1ccc(-c2cccc(-c3cc(N4CCNCC4)no3)c2O)cc1Oc1ccccc1 [Example 68, 2,2,2-trifluoroacetate]")
"10 to 100 nM"
>>> result("CC(=O)Nc1ccc(-c2cccc(-c3cc(F)nc(N4CCNCC4)c3)c2O)cc1F")
"10 to 100 nM"
>>> result("CN1CCN(c2ccc(-c3cccc(-c4cncc(N5CCNCC5)c4)c3O)cc2F)C1=O")
"1 to 10 nM"
>>> result("CCOc1cc(-c2cccc(-c3ccc(NC(C)=O)c(F)c3)c2O)ccc1NC(C)=O")
"10 to 100 nM"
>>> result("Cn1ccn(-c2ccc(-c3cc(F)cc(-c4cc(N5CCC[C@H](N)C5)c5cn[nH]c5c4)c3O)cc2Cl)c1=O")
"0.01 to 1 nM"
>>> result("Cc1ncc(-c2cc(F)cc(-c3ccc(-n4ccn(C)c4=O)c(Cl)c3)c2O)cc1N1CC(C)(O)C1")
"0.01 to 1 nM"
>>> result("CN1C2CCC1CN(c1cc(-c3cc(F)cc(-c4ccc(-n5ccn(C)c5=O)c(Cl)c4)c3O)ccn1)C2")
"1 to 10 nM"

----------
Below: a set of entries, each annotated with reported IC50.
- system: human BRD4 bromodomain II (Homo sapiens)
- Construct: human BRD4 bromodomain II [based on Genbank NM_058243, residues 349-460]; host or cells: E. coli
- procedure_text: Bromodomain binding assay (AlphaScreen), BRD4 BDII
- condition_info: AlphaScreen assay, Table C2; read-out: BRD4 BDII IC50
parameter_measured: IC50

>>> result("CC(=O)Nc1ccc(-c2cccc(-c3cc(N4CCNCC4)n(C)n3)c2O)cc1F")
"> 100 nM"
>>> result("CC(=O)Nc1ccc(-c2cccc(-c3cc(N4CCNCC4)no3)c2O)c(F)c1 [Example 30, 2,2,2-trifluoroacetate]")
"> 100 nM"
>>> result("O=c1n(-c2ccc(-c3cc(F)cc(-c4ccnc(N5CCNCC5)c4)c3O)cc2Cl)ccn1C(F)F")
"1 to 10 nM"
>>> result("CC(=O)Nc1ccc(-c2cccc(-c3cc(N4CCNCC4)ccc3F)c2O)cc1F")
"10 to 100 nM"
>>> result("Cn1ccn(-c2ccc(-c3cc(F)cc(-c4ccc(F)c(N5CCN(C(C)(C)C)CC5)c4)c3O)cc2Cl)c1=O")
"0.01 to 1 nM"
>>> result("Cn1ccn(-c2ccc(-c3cc(F)cc(-c4cnc(OC(F)F)c(N5CCN(C(C)(C)C)CC5)c4)c3O)cc2Cl)c1=O")
"1 to 10 nM"
>>> result("CC(=O)Nc1ccc(-c2cccc(-c3cncc(N4CCN[C@H](C)C4)c3)c2O)cc1Cl")
"1 to 10 nM"

----------
- system: human BRD4 bromodomain II (Homo sapiens, UniProt O60885)
- Construct: human BRD4 bromodomain II [based on Genbank NM_058243, residues 349-460]; host or cells: E. coli
- procedure_text: Bromodomain binding assay (AlphaScreen), BRD4 BDII
- condition_info: BRD4 BDII AlphaScreen assay; read-out: BRD4 BD2 IC50
parameter_measured: IC50

>>> result("CC(C)COc1cc(-c2cc(F)cc(-c3cccc(N4CCN(C(C)(C)C)CC4)c3)c2O)cc(Cl)c1-n1ccn(C)c1=O")
"10 to 100 nM"
>>> result("Cn1ccn(-c2ccc(-c3cc(F)cc(-c4ccccc4CN4CCNCC4)c3O)cc2Cl)c1=O")
"> 100 nM"
>>> result("Cn1ccn(-c2ccc(-c3cc(F)cc(-c4cc(N5CCN(C(C)(C)C)CC5)ncn4)c3O)cc2Cl)c1=O")
"> 100 nM"
>>> result("Cn1ccn(-c2ccc(-c3cc(F)cc(-c4cc(Cl)c(F)c(N5CCN(C(C)(C)C)CC5)c4)c3O)cc2Cl)c1=O")
"0.01 to 1 nM"
>>> result("Cn1ccn(-c2ccc(-c3cc(F)cc(-c4ccnc(N5CCC(C)(NCC(F)(F)F)C5)c4)c3O)cc2Cl)c1=O (centres unmarked)")
"1 to 10 nM"
>>> result("Cc1cc(-c2ccc(-n3ccn(C)c3=O)c(Cl)c2)c(O)c(-c2ccnc(N3CC[C@](C)(O)C3)c2)n1")
"1 to 10 nM"
>>> result("Cn1ccn(-c2c(Cl)cc(-c3cc(F)cc(-c4cccc(N5CCN(C(C)(C)C)CC5)c4)c3O)cc2OC2CC2)c1=O")
"> 100 nM"
>>> result("Cn1ccn(-c2ccc(-c3cc(F)cc(-c4cccc(-c5ccc(N)cc5)c4)c3O)cc2Cl)c1=O")
"10 to 100 nM"
>>> result("CC(=O)Nc1ccc(-c2cc(F)cc(-c3cccc(N4CCN(C(C)(C)C)CC4)c3)c2O)nc1")
"> 100 nM"
>>> result("COc1ncc(-c2cc(F)cc(-c3ccc(-n4ccn(C)c4=O)c(Cl)c3)c2O)cc1N1CC[C@]2(CCCN2C(C)C)C1")
"0.01 to 1 nM"
>>> result("Cc1cc(-c2ccc(-n3ccn(C)c3=O)c(Cl)c2)c(O)c(-c2cnc(C)c(N3CCC4(CCCN4C(C)C)C3)c2)n1 (centres unmarked)")
"0.01 to 1 nM"
>>> result("COc1ncc(-c2cc(F)cc(-c3ccc(-n4ccn(C)c4=O)c(F)c3)c2O)cc1N1CCN(C(C)(C)C)CC1")
"1 to 10 nM"
>>> result("CC(C)N1CCC12CCN(c1cccc(-c3cc(F)cc(-c4ccc(-n5ccn(C)c5=O)c(Cl)c4)c3O)c1)C2 (centres unmarked)")
"1 to 10 nM"
>>> result("CC(=O)Nc1ncc(-c2cc(F)cc(-c3cccc(N4CCN(C(C)(C)C)CC4)c3)c2O)cn1")
"> 100 nM"

----------
Below: a set of entries, each annotated with reported pIC50.
- system: human BRD4 bromodomain II (Homo sapiens)
- Construct: human BRD4 bromodomain II [based on Genbank NM_058243, residues 349-460]; host or cells: E. coli
- procedure_text: Bromodomain binding assay (AlphaScreen), BRD4 BDII
- condition_info: AlphaScreen assay, Table C2; read-out: BRD4 BDII IC50
pIC50: −log10 of the molar value.
parameter_measured: pIC50

>>> result("CC(C)N1CCN(c2cc(-c3cc(F)cc(-c4ccc(-n5ccn(C)c5=O)c(Cl)c4)c3O)cnc2Cl)CC1 [Example 787]")
"9.00 to 11.00"
>>> result("CN1CCC12CCCN(c1cc(-c3cc(F)cc(-c4ccc(-n5ccn(C)c5=O)c(Cl)c4)c3O)ccn1)C2 (stereo not drawn) [Example 693]")
"9.00 to 11.00"
>>> result("C[C@@H]1CN(c2cncc(-c3cc(F)cc(-c4ccc(-n5ccn(C)c5=O)c(Cl)c4)c3O)c2)CCN1 [Example 467]")
"9.00 to 11.00"
>>> result("C[C@@H]1CN(c2cc(-c3cc(F)cc(-c4ccc(-n5ccn(C)c5=O)c(Cl)c4)c3O)cn(C)c2=O)CCN1 [Example 432]")
"9.00 to 11.00"
>>> result("Cn1ccn(-c2ccc(-c3cc(F)cc(-c4ccnc(N5CC6CC6(N)C5)c4)c3O)cc2Cl)c1=O (stereo not drawn) [Example 721]")
"9.00 to 11.00"
>>> result("Cc1cc(-c2ccnc(N3CC[C@H](N)C3)c2)c(O)c(-c2ccc(N3CCN(C)C3=O)c(Cl)c2)c1 [Example 362]")
"8.00 to 9.00"
>>> result("Cn1ccn(-c2ccc(-c3cc(F)cc(-c4ccnc(N5CC6CCC6(N)C5)c4)c3O)cc2Cl)c1=O (stereo not drawn) [Example 806]")
"8.00 to 9.00"
>>> result("CC(C)c1cc(-c2ccnc(N3CCNCC3)c2)c(O)c(-c2ccc(N3CCN(C)C3=O)c(Cl)c2)c1 [Example 315]")
"7.00 to 8.00"
>>> result("Cc1cc(-c2cc(F)cc(-c3ccnc(N4CCNCC4)c3)c2O)ccc1N1CCN(C)C1=O [Example 380]")
"8.00 to 9.00"
>>> result("Cn1ccn(-c2ccc(-c3cc(F)cc(-c4ccnc(N5CCN(CC(=O)O)CC5)c4)c3O)cc2Cl)c1=O [Example 521]")
"8.00 to 9.00"
>>> result("Cn1ccn(-c2ccc(-c3cc(F)cc(-c4ccc(F)c(N5CC[C@@](C)(O)C5)c4)c3O)cc2Cl)c1=O [Example 775]")
"8.00 to 9.00"
>>> result("O=C(Nc1ccc(-c2cccc(-c3cc(N4CCNCC4)no3)c2O)cc1)C(F)(F)F [Example 39, 2,2,2-trifluoroacetate]")
"< 7.00"
>>> result("CC(=O)Nc1ccc(-c2cccc(-c3ccnc(C(=O)O)c3)c2O)cc1F [Example 205]")
"8.00 to 9.00"
>>> result("CC(=O)N[C@]1(C)CCN(c2cncc(-c3cc(F)cc(-c4ccc(-n5ccn(C)c5=O)c(Cl)c4)c3O)c2)C1 [Example 793]")
"9.00 to 11.00"
>>> result("Cn1ccn(-c2ccc(-c3cc(F)cc(-c4ccnc(N5CCNC(CCN)C5)c4)c3O)cc2Cl)c1=O (stereo not drawn) [Example 697]")
"8.00 to 9.00"
